Values compiled from patent US9212169B2.

- targetEntity: silkworm recombinant PCA-1 (Homo sapiens)
- Construct: made in house; host or cells: silkworm
- experiment: Evaluation of PCA-1 inhibitory activity (demethylation of 3-methyl cytosine-containing oligo DNA, real-time PCR)
- Type: biochemical
- measurementSetup: test compound 10 μM, 37° C., 1 hr
Give measured inhibition at 10 µM for each item. Keep answers brief.
Lab book: enter the figure in %, no units written.

Incoming: State the recorded inhibition at 10 µM for this entry: Cc1ccc2[nH]c(-n3nc(C)c(Cc4ccc(F)cc4)c3O)nc2c1 [Example 32]
Outgoing: 81

Incoming: // query: Cc1nn(-c2nc3cc(-c4ccccc4)ccc3[nH]2)c(O)c1Cc1ccccc1 [Example 37]
Outgoing: 64

Incoming: Now consider Cc1nn(-c2nc3cc(C(F)(F)F)ccc3[nH]2)c(O)c1Cc1ccccc1 [Example 4] .
Outgoing: 82

Incoming: Next: Cc1ccc2[nH]c(-n3nc(C)c(C)c3O)nc2c1 [Example 17]
Outgoing: 76

Incoming: Would you mind doing Cc1ccc2[nH]c(-n3nc(C)c(Cc4ccccc4)c3O)nc2c1 [Example 1] as well?
Outgoing: 81

* * *

- targetEntity: silkworm recombinant PCA-1 (Homo sapiens, UniProt Q96Q83)
- Construct: made in house; host or cells: silkworm
- experiment: Evaluation of PCA-1 inhibitory activity (demethylation of 3-methyl cytosine-containing oligo DNA, real-time PCR)
- Assay type: biochemical
- measurementSetup: test compound 10 μM, 37° C., 1 hr
Response key: yes means inhibition at 10 µM >= 80%; no means inhibition at 10 µM < 80%.

Incoming: Please tell me: is the compound "Cc1nn(-c2nc3ccccc3[nH]2)c(O)c1-c1ccccc1" at or over 80% in terms of inhibition at 10 µM?
Outgoing: no

Incoming: Repeat with "Cc1nn(-c2nc3ccccc3[nH]2)c(O)c1C"
Outgoing: no

Incoming: Param item: "COc1ccc(Cc2c(C)nn(-c3nc4ccccc4[nH]3)c2O)cc1"
Outgoing: yes

Incoming: Continue with "Cc1nn(-c2nc3ccccc3[nH]2)c(O)c1Cc1ccc(F)cc1"
Outgoing: no

Incoming: Then what about the compound "Cc1ccc2[nH]c(-n3nc(C)c(-c4ccccc4)c3O)nc2c1" ?
Outgoing: no

Incoming: # repeat for "Cc1nn(-c2nc3ccccc3[nH]2)c(O)c1Cc1ccc(C(F)(F)F)cc1"
Outgoing: no

Incoming: Now consider "Cc1ccc(-c2ccc3[nH]c(-n4nc(C)c(Cc5ccccc5)c4O)nc3c2)cc1" .
Outgoing: no

Incoming: Then this compound: "Cc1cc(O)n(-c2nc3ccccc3[nH]2)n1"
Outgoing: no

Incoming: Also "Cc1nn(-c2nc3cc(Cl)ccc3[nH]2)c(O)c1Cc1ccccc1" , if possible.
Outgoing: no

Incoming: Same thing, different compound: "Cc1nn(-c2nc3ccccc3[nH]2)c(O)c1Cc1ccc2ccccc2c1"
Outgoing: no

Incoming: Same lookup for "Cc1nn(-c2nc3cc(C(C)(C)C)ccc3[nH]2)c(O)c1Cc1ccccc1" , please.
Outgoing: yes

Incoming: Again, but for "Cc1nn(-c2nc3cc(-c4ccc(Cl)cc4)ccc3[nH]2)c(O)c1Cc1ccccc1"
Outgoing: no

* * *

- targetEntity: silkworm recombinant PCA-1 (Homo sapiens, UniProt Q96Q83)
- Construct: made in house; host or cells: silkworm
- experiment: Evaluation of PCA-1 inhibitory activity (demethylation of 3-methyl cytosine-containing oligo DNA, real-time PCR)
- Format: biochemical
- measurementSetup: test compound 1 μM, 37° C., 1 hr
Assign label 1 to entries whose inhibition at 1 µM meets or exceeds 40%; assign label 0 to the rest.

Incoming: Decide: is the reported value of inhibition at 1 µM for Cc1nn(-c2nc3ccccc3[nH]2)c(O)c1C [Example 13] equal to or greater than 40%?
Outgoing: label 0

Incoming: Can you check Cc1nn(-c2nc3cc(Cl)ccc3[nH]2)c(O)c1Cc1ccccc1 [Example 3] next?
Outgoing: label 0

Incoming: Cc1nn(-c2nc3ccccc3[nH]2)c(O)c1Cc1ccc2ccccc2c1 [Example 19] ?
Outgoing: label 0

Incoming: Let us now turn to Cc1nn(-c2nc3cc(-c4ccccc4)ccc3[nH]2)c(O)c1Cc1ccccc1 [Example 37]
Outgoing: label 0

Incoming: Now this one: Cc1ccc2[nH]c(-n3nc(C)c(Cc4ccccc4Cl)c3O)nc2c1 [Example 33]
Outgoing: label 1

Incoming: Would you mind doing Cc1cc(O)n(-c2nc3ccccc3[nH]2)n1 [Example 15] as well?
Outgoing: label 0

Incoming: Ok, now Cc1nn(-c2nc3ccccc3[nH]2)c(O)c1Cc1ccccc1 [Example 14]
Outgoing: label 0

Incoming: Same for Cc1ccc2[nH]c(-n3nc(C)c(-c4ccccc4)c3O)nc2c1 [Example 42]
Outgoing: label 0

Incoming: How about this molecule: Cc1ccc2[nH]c(-n3nc(C)c(C)c3O)nc2c1 [Example 17]
Outgoing: label 0

Incoming: Now try COc1ccc(Cc2c(C)nn(-c3nc4cc(C)ccc4[nH]3)c2O)cc1 [Example 34] .
Outgoing: label 1

Incoming: Note, next up: CCCCCCc1c(C)nn(-c2nc3cc(C)ccc3[nH]2)c1O [Example 45]
Outgoing: label 1

Incoming: Moving on to Cc1ccc2[nH]c(-n3nc(C)c(CC4CCCCC4)c3O)nc2c1 [Example 46]
Outgoing: label 1

Incoming: // repeat for Cc1nn(-c2nc3ccccc3[nH]2)c(O)c1Cc1ccc(C(F)(F)F)cc1 [Example 24] and report
Outgoing: label 1

Incoming: Check Cc1nn(-c2nc3ccccc3[nH]2)c(O)c1-c1ccccc1 [Example 18] too.
Outgoing: label 0

Incoming: Also Cc1nn(-c2nc3cc(-c4ccc(Cl)cc4)ccc3[nH]2)c(O)c1Cc1ccccc1 [Example 35] , if possible.
Outgoing: label 0

Incoming: Consider next the molecule Cc1ccc2[nH]c(-n3nc(C)c(Cc4ccc5ccccc5c4)c3O)nc2c1 [Example 11] in the same way.
Outgoing: label 0

Incoming: Follow-up entry: Cc1nn(-c2nc3cc(C(F)(F)F)ccc3[nH]2)c(O)c1Cc1ccccc1 [Example 4]
Outgoing: label 1

Incoming: Now give it for COc1ccc(Cc2c(C)nn(-c3nc4ccccc4[nH]3)c2O)cc1 [Example 31] too.
Outgoing: label 1

Incoming: Proceed to Cc1ccc2[nH]c(-n3nc(C)c(Cc4ccccc4)c3O)nc2c1 [Example 1]
Outgoing: label 0

Incoming: Try Cc1ccc2[nH]c(-n3nc(C)c(Cc4ccc(F)cc4)c3O)nc2c1 [Example 32] next.
Outgoing: label 1

Incoming: Next: Cc1ccc(-c2ccc3[nH]c(-n4nc(C)c(Cc5ccccc5)c4O)nc3c2)cc1 [Example 40]
Outgoing: label 0

Incoming: Likewise for Cc1nn(-c2nc3cc(C(C)(C)C)ccc3[nH]2)c(O)c1Cc1ccccc1 [Example 5] ?
Outgoing: label 1

* * *

- targetEntity: silkworm recombinant PCA-1 (Homo sapiens, UniProt Q96Q83)
- Construct: made in house; host or cells: silkworm
- Sequence (Q96Q83 1-286): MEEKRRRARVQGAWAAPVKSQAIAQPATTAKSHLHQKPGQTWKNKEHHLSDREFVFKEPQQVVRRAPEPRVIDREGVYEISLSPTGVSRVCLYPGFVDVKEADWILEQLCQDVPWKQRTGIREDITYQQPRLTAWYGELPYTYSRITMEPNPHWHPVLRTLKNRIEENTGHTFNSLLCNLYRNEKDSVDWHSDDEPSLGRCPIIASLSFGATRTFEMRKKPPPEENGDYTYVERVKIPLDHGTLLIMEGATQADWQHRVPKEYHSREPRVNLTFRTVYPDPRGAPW
- experiment: Evaluation of PCA-1 inhibitory activity (demethylation of 3-methyl cytosine-containing oligo DNA, real-time PCR)
- Assay type: biochemical
- measurementSetup: test compound 10 μM, 37° C., 1 hr
reportedProperty: inhibition at 10 µM (%)
Write down the numeric answer in % and omit the unit.

Incoming: For "COc1ccc(Cc2c(C)nn(-c3nc4cc(C)ccc4[nH]3)c2O)cc1" , what is its reported inhibition at 10 µM?
Outgoing: 80

Incoming: What about "CCCCCCc1c(C)nn(-c2nc3cc(C)ccc3[nH]2)c1O" ?
Outgoing: 81

Incoming: Request: "Cc1ccc2[nH]c(-n3nc(C)c(Cc4ccc5ccccc5c4)c3O)nc2c1"
Outgoing: 82

Incoming: Now try "Cc1ccc2[nH]c(-n3nc(C)c(Cc4ccccc4Cl)c3O)nc2c1" .
Outgoing: 82

Incoming: Would you mind doing "Cc1nn(-c2nc3ccccc3[nH]2)c(O)c1Cc1ccccc1" as well?
Outgoing: 80

Incoming: What do you get for "Cc1ccc2[nH]c(-n3nc(C)c(CC4CCCCC4)c3O)nc2c1" ?
Outgoing: 81
